# Trimeric HA Binding: RLU listing for each entry below
Biological target: recombinant homotrimeric HA A/common magpie/Hong Kong/5052/07 H5N1 (Influenza A virus A/common magpie/Hong Kong/5052/2007(H5N1))
Assay: protein microarray, purified IgG, trimeric HA
Settings: remark: other sources report otherwise
Entry rule: numbers only, all in RLU.

{"columns": ["Binder", "Value Kind", "Assay Result"],
 "data": [
  ["TCN-553 (5261_C18) (antibody, V domains shown) VH: QVQVVQSGTEVKKPGSSVKVSCQTSGGRFMSYAITWVRQAPGQGLEWMGGIVPVFGTANYAQKFQGRVTITTDDSTRTAYMELSSLRSEDTAVYYCGFRYGSGYGFDSWGQGTLVTVSS VL: EIVLTQSPGTLSLSPGERATLSCRASQSVSSSYLAWYQKKPGQAPRLLIYGASTRATGIPDRFTGSGSGTDFTLSISRLEPEDFAVYYCQHFGTSVFTFGGGTKVEIK", "Trimeric HA Binding: RLU", 22800],
  ["TCN-542 (5079_A16) (antibody, V domains shown) VH: QVQLQESGPGLVKPSQTLSLTCTVSGGSISSGNYYWNWVRQHPGKGLEWIGYIYYRGSTFYNPSLKSRVTISIDTSKNQFSLRLSSVTAADTAVYYCAKDTRSSLDNYQYGMDVWGQGTTVTVSS VL: QTVVTQEPSLTVSPGGTVTLTCASSTGAVTSSYFPNWFQQKPGQAPRPLIYSTTIRHSWTPARFSGSLLGGKAALTLSGVQPEDEADYYCLLYSGGDPVAFGGGTKLTVL", "Trimeric HA Binding: RLU", 1540],
  ["TCN-540 (5060_F05) (antibody, V domains shown) VH: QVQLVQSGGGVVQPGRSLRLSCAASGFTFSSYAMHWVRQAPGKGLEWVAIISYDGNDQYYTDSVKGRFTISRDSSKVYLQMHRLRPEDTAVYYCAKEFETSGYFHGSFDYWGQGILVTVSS VL: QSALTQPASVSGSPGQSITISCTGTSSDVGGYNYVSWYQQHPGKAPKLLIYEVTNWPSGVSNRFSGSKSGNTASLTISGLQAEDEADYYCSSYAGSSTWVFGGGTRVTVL", "Trimeric HA Binding: RLU", 799]
]}

Now for the binder whose Trimeric HA Binding: RLU we want.
Task: Give its Trimeric HA Binding: RLU value. Item: TCN-531 (5091_H13) (antibody, V domains shown) VH: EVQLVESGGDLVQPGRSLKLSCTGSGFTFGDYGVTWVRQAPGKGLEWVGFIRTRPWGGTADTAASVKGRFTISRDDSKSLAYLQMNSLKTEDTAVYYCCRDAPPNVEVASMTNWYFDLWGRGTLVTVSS VL: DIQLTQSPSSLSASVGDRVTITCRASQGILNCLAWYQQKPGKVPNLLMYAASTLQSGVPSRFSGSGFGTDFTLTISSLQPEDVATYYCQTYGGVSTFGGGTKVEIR
Output: 674
